tested on: ERK4; construct: gene MAPK4; conditions: concentration: 1 μM, replicates: in singlicate; n = 1;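 further: KINOMEscan kinase panel screen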
quantity: %Inh (%)

                                   compound  system_tested  quantity  unit_abbrev  data_value
0                        CNc1ncnc2[nH]ncc12           ERK4      %Inh            %           0
1                        CCn1cnc2c(N)ncnc21           ERK4      %Inh            %           0
2  COc1cc(Nc2nccc(N3CCC(NC(=O)c4cccc(NC(C)=O)c4)C3)n2)cc(OC)c1OC (centres unmarked)           ERK4      %Inh            %           1
3  O=c1cc(N2CCOCC2)nc2n(Cc3cccc4ccccc34)ccn12           ERK4      %Inh            %          25
4  O=C(NCCCN1CCOCC1)c1cccc(Nc2nccc(Nc3ccc(Oc4ccccc4)cc3)n2)c1           ERK4      %Inh            %          34

###

The entries below come with measured %Inh values attached.
test system: LZK; construct: gene MAP3K13; conditions: concentration: 1 μM, replicates: in singlicate; n = 1
quantity: %Inh (%)

In [3]: df
Out[3]:
                                   compound  unit_abbrev  data_value
0  O=c1cc(N2CCOCC2)nc2n(Cc3cccc(C(F)(F)F)c3)ccn12            %           0
1  Cc1cccc(-c2nc(Nc3ccc4ncsc4c3)c3ccccc3n2)n1            %           7
2  CN1c2ccc(NCc3ccc(F)cc3)cc2-c2c(cnn2C)S1(=O)=O            %           0
3  COc1ccc(COc2cc(-n3cnc4ccccc43)sc2C(N)=O)cc1            %           0
4  Cc1nnc(-c2ccc3ncc(-c4ccc(S(C)=O)cc4)n3c2)o1 (stereo not drawn)            %          11
5  O=C(Nc1n[nH]c2cc(-c3cccc(F)c3)ccc12)C1CC1            %           2
6  N#Cc1ccc(-c2cc(-c3c[nH]nc3-c3ccccn3)ccn2)cc1            %           0
7  N#Cc1c(N2CCOCC2)sc(-c2ccn[nH]2)c1-c1ccc(Cl)cc1            %          20
8  COc1ccc(Nc2nccc(N3CCC(NC(=O)Nc4cccc(C(C)=O)c4)C3)n2)cc1 (stereo not drawn)            %           0

###

system: TYK2(JH2domain-pseudokinase); conditions: concentration: 1 μM, replicates: in singlicate; n = 1
Rule: %Inh below 10% gives Fulfilled, anything at or above gives Not fulfilled.

In [3]: df
Out[3]:
                                    molecule          label
 0  COCCNC(=O)c1ccc(-c2cc(C(=O)NC3CC3)cc(F)c2C)cc1  Not fulfilled
 1  Fc1ccc(-c2nn3c(OCC(F)(F)F)cccc3c2-c2ccncc2)cc1  Not fulfilled
 2  Cn1cc(-c2ccc3c(c2)CCN3C(=O)Cc2ccccc2Cl)c2c(N)ncnc21      Fulfilled
 3  COC(=O)Nc1nc2cc(Oc3ccc(NC(=O)Nc4cc(F)ccc4F)cc3)ccc2[nH]1.Cl  Not fulfilled
 4  [2H]C([2H])(c1cccc(C(F)(F)F)c1C)n1ccn2c(=O)nc(N3CCOCC3)cc12  Not fulfilled
 5  COc1ccc(S(=O)(=O)NC2CCN(c3cc(C)nc(Nc4cccc(C#N)c4)n3)CC2)cc1.O=C(O)C(F)(F)F      Fulfilled
 6  NS(=O)(=O)CCc1cccc(Nc2nccc(-c3c(-c4cccc(NC(=O)c5c(F)cccc5F)c4)nn4ccccc34)n2)c1  Not fulfilled
 7  COc1ccc(COc2cc(-n3cnc4ccccc43)sc2C(N)=O)cc1      Fulfilled
 8  Cc1cccc(-c2nc(Nc3ccc4ncsc4c3)c3ccccc3n2)n1  Not fulfilled
 9  Cc1c(Cn2c(C)nn3c(=O)cc(N4CCOC(C)C4)nc23)cccc1C(F)(F)F (stereo not drawn)      Fulfilled
10  COc1cc2ncn(-c3cc(OCc4sccc4Cl)c(C(N)=O)s3)c2cc1OC  Not fulfilled
11                        CNc1ncnc2[nH]ncc12  Not fulfilled
12  COc1ccc(Nc2nccc(N3CCC(NC(=O)Nc4cccc(C(C)=O)c4)C3)n2)cc1 (stereo not drawn)  Not fulfilled
13  c1ccc(-c2cc(-c3c[nH]nc3-c3ccccn3)ccn2)cc1  Not fulfilled
14  O=C(NCCCN1CCOCC1)c1cccc(Nc2nccc(Nc3ccc(Oc4ccccc4)cc3)n2)c1  Not fulfilled
15  COc1cc2c(cc1OC[C@@H](O)CO)ncc1c3ccc(C#N)cc3[nH]c21  Not fulfilled
16  Cl.Nc1ncnc2occ(-c3ccc(NC(=O)Nc4cc(C(F)(F)F)ccc4F)cc3)c12  Not fulfilled
17  Cc1ccc(NC(=O)c2ccnc(N3CCN(C)CC3)c2)cc1-c1ccc(C(=O)NCC2CC2)cc1      Fulfilled
18  O=c1cc(N2CCOCC2)nc2n(Cc3cccc(C(F)(F)F)c3)ccn12      Fulfilled
19  COc1cc(Nc2nccc(N3CCC(NC(=O)c4cccc(NC(C)=O)c4)C3)n2)cc(OC)c1OC (stereo not drawn)  Not fulfilled
20      CSc1ccc(-c2cc3ncnc(SCC(=O)O)c3s2)cc1      Fulfilled
21  O=C1Cc2cc(Nc3nc(NCc4cccc(S(=O)(=O)C(F)(F)F)c4)ncc3C(F)(F)F)ccc2N1      Fulfilled
22  N#Cc1ccc(-c2cc(-c3c[nH]nc3-c3ccccn3)ccn2)cc1  Not fulfilled
23  COc1cc2c(cc1OCCN1CCN(C)CC1)ncc1c3ccc(C#N)cc3[nH]c21  Not fulfilled
24                        CCn1cnc2c(N)ncnc21      Fulfilled
25  O=C1NC(=O)C(N2CCc3ccccc32)=C1c1cccc(Cl)c1      Fulfilled
26  Fc1ccc(-c2ncn(CCCN3CCOCC3)c2-c2ccccn2)cc1      Fulfilled
27   Cc1cccc(Cn2ccn3c(=O)cc(N4CCOCC4)nc23)c1  Not fulfilled
28  CCc1nc(-c2cccc(C)c2)c(-c2ccnc(NCc3ccccc3)c2)s1      Fulfilled
29  NS(=O)(=O)c1cccc(-c2ccc3ncc(N4CCOCC4)nc3c2)c1  Not fulfilled
30  Cc1cn2c(=O)cc(N3CCOCC3)nc2n1Cc1cccc(Cl)c1Cl  Not fulfilled
31  N#Cc1c(N2CCOCC2)sc(-c2ccn[nH]2)c1-c1ccc(Cl)cc1  Not fulfilled
32  Cc1cccc(-c2nc(-c3ccc(S(C)(=O)=O)cc3)sc2-c2ccncc2)c1      Fulfilled

###

system: HIPK1; conditions: concentration: 1 μM, replicates: in singlicate; n = 1
The entries below come with measured %Inh values attached.
quantity: %Inh

>>> print(df.to_string())
                                   compound  quantity  data_value
0  COC(=O)Nc1nc2cc(Oc3ccc(NC(=O)Nc4cc(F)ccc4F)cc3)ccc2[nH]1.Cl      %Inh          0%
1  Cc1nnc(-c2ccc(C)c(-c3ccc(C(=O)Nc4ccc(NS(C)(=O)=O)cc4)cc3)c2)o1      %Inh          0%
2  COc1ccc(Nc2nccc(N3CCC(NC(=O)Nc4cccc(C(C)=O)c4)C3)n2)cc1 (centres unmarked)      %Inh          0%
3  O=C1Cc2cc(Nc3nc(NCc4cccc(S(=O)(=O)C(F)(F)F)c4)ncc3C(F)(F)F)ccc2N1      %Inh          0%
4  O=c1cc(N2CCOCC2)nc2n(Cc3cccc4ccccc34)ccn12      %Inh          0%
5  COc1ccc(COc2cc(-n3cnc4ccccc43)sc2C(N)=O)cc1      %Inh         18%
6  O=C1NC(=O)C(N2CCc3ccccc32)=C1c1cccc(Cl)c1      %Inh         27%
7  O=C(c1ccc(-c2cc(-c3c[nH]nc3-c3ccccn3)ccn2)cc1)N1CCOCC1      %Inh         36%

###

test system: EPHA1; settings: concentration: 1 μM, replicates: in singlicate; n = 1
The entries below come with measured %Inh values attached.
quantity: %Inh

>>> df
                                    molecule  data_value
 0  Cc1c(Cn2c(C)nn3c(=O)cc(N4CCOC(C)C4)nc23)cccc1C(F)(F)F (stereo not drawn)          0%
 1      CSc1ccc(-c2cc3ncnc(SCC(=O)O)c3s2)cc1         11%
 2  O=C(Nc1n[nH]c2cc(-c3cccc(F)c3)ccc12)C1CC1         25%
 3  COc1cc2ncn(-c3cc(OCc4sccc4Cl)c(C(N)=O)s3)c2cc1OC          0%
 4  CCc1nc(-c2cccc(C)c2)c(-c2ccnc(NCc3ccccc3)c2)s1          0%
 5  COc1cc(Nc2nccc(N3CCC(NC(=O)c4cccc(NC(C)=O)c4)C3)n2)cc(OC)c1OC (stereo not drawn)         11%
 6  Cc1nnc(-c2ccc3occ(-c4ccc(C(C)O)cc4)c3c2)o1 (stereo not drawn)          0%
 7  Cc1cn2c(=O)cc(N3CCOCC3)nc2n1Cc1cccc(Cl)c1Cl         51%
 8  Fc1ccc(-c2ncn(CCCN3CCOCC3)c2-c2ccccn2)cc1         17%
 9  COc1cc2c(cc1OCCN1CCN(C)CC1)ncc1c3ccc(C#N)cc3[nH]c21          0%
10  COc1ccc(Nc2nccc(N3CCC(NC(=O)Nc4cccc(C(C)=O)c4)C3)n2)cc1 (stereo not drawn)          2%
11  Nc1nc(-c2ccc3c(N)n[nH]c3c2)cc(N2CCCC2)n1          0%
12                  CC(C)(C)n1cnc2c(N)ncnc21          0%
13  O=C1Cc2cc(Nc3nc(NCc4cccc(S(=O)(=O)C(F)(F)F)c4)ncc3C(F)(F)F)ccc2N1         19%
14  NCC(NC(=O)c1cc(-c2cn[nH]c2)c(-c2ccnc3[nH]ccc23)s1)c1ccccc1.O=C(O)C(F)(F)F.O=C(O)C(F)(F)F (stereo not drawn)         13%
15  COc1ccc(S(=O)(=O)NC2CCN(c3cc(C)nc(Nc4cccc(C#N)c4)n3)CC2)cc1.O=C(O)C(F)(F)F          0%
16  Cn1cc(-c2ccc3c(c2)CCN3C(=O)Cc2ccccc2Cl)c2c(N)ncnc21         88%
17  CN1c2ccc(CNc3ccc(F)cc3)cc2-c2c(cnn2C)S1(=O)=O          0%
